Data credit: ChEMBL document CHEMBL1201862

Kindly supply the reported AC50 values for the records listed here.
molecular target: Replicative DNA helicase DnaB (Mycobacterium tuberculosis, UniProt P9WMR3); assay: DnaB intein splicing inhibitors, dose response, biochemical, cell-free fluorescence (AID 449749); type: functional
Calls of active or inactive are those of the source.

Data request, read-out AC50, for CCOC(=O)c1c(NC(=O)/C=C/C(=O)O)sc(C)c1-c1ccc(F)cc1
14.3 µM (active)

Data request, read-out AC50, for Cn1c(SCC(=O)NCc2ccc(F)cc2)nc2ccccc21
124 µM (active)

Data request, read-out AC50, for O=C1Nc2ccc(Br)cc2/C1=C/C(=O)c1ccc2c(c1)OCO2
36.3 µM (active)

Data request, read-out AC50, for O=C1NC(=O)C(=NNc2cc([N+](=O)[O-])ccc2O)C(=O)N1
4.84 µM (active)

Data request, read-out AC50, for CC(C)CC1C(C#N)=C(N)Oc2[nH]nc(-c3cccs3)c21 (stereo unspecified)
48.8 µM (active)

Data request, read-out AC50, for CC(C)CC1C(C#N)=C(N)Oc2[nH]nc(-c3ccccc3)c21 (stereo unspecified)
5.91 µM (active)

Data request, read-out AC50, for Cc1noc2ncnc(Sc3ccc(Br)cc3)c12
4.02 µM (active)

Data request, read-out AC50, for CC(C)(C)NC(=O)C(c1ccc(Cl)cc1)N(Cc1ccco1)C(=O)CCl (stereo unspecified)
24.1 µM (active)

Data request, read-out AC50, for C=CCn1c(-c2cccnc2Cl)nc2ccccc21
> 380 µM (inactive)

Data request, read-out AC50, for CCN(CC)c1ccc(/C=N/Nc2nc(C)cc(O)n2)c(O)c1
> 380 µM (inactive)

Data request, read-out AC50, for CN1C(=O)C(=C2CC(c3ccccc3)N(C(=O)CCl)N2)C(=O)N(C)C1=O (stereo unspecified)
2.05 µM (active)

---

Kindly supply the reported GI50 values for the records listed here.
tested on: SN12K1; test: cells; type: functional; settings: Homo sapiens
Active and inactive are the calls of the source.

Data request, read-out GI50, for O=c1cc(O)ccn1C1C=C(CO)C(O)C1O (centres undefined)
> 625 µM (inactive)

Data request, read-out GI50, for CCC[S+]([O-])c1nc(COC(=O)NC)c(COC(=O)NC)n1C (centres undefined)
> 100 µM (inactive)

Data request, read-out GI50, for S=P(N1CC1)(N1CC1)N1CC1
> 89.1 µM (inactive)

Data request, read-out GI50, for COC1C(C)OC(OC2CC(C)(O)Cc3cc4c(c(O)c32)C(=O)c2c(O)cc3c(c2C4=O)OC2OC3(C)C(O)C(N(C)C)C2O)C(OC)C1(C)OC (centres undefined)
0.0168 µM (active)

---

test: Luminescence Cell-Based Dose Confirmation HTS to Identify Activators of 5'UTR Stem-Loop Driven Alpha-Synuclein mRNA Translation in H4 Neuroglioblastoma Cells. [Related pubchem assays: 1829 (Project Summary), 1814 (Primary HTS)]; assay type: functional
Active and inactive are the calls of the source.
Kindly supply the reported EC50 values for the records listed here.

Data request, read-out EC50, for C[C@@H]1[C@@H](Sc2ccccc2)CC(=O)O[C@@H]1c1ccc(-c2ccccc2)cc1
> 120 µM (not active)

Data request, read-out EC50, for N#C/C(=C\c1ccco1)Sc1nc2ccccc2s1
13.9 µM (active)

Data request, read-out EC50, for NC1=C(c2nc(-c3ccc(Cl)cc3)cs2)C(=O)CN1NC(=O)c1ccc(O)cc1
> 120 µM (not active)

Data request, read-out EC50, for Cc1nc2nc(NC(=O)c3ccco3)nn2c(C)c1Cl
0.817 µM (active)
